test system: 293A cells; test: Cytoprotection under endoplasmic reticulum stress conditions (Tm-induced cell death); assay type: cell-based; conditions: compound concentration inhibiting Tm-induced cell death by 50%, Tm 0.2 µg/mL, reporter cells
MEASUREMENT_LABEL: IC50 (µM)
Give bare numbers, in µM.

Answered cases to consult:
C#CCOc1ccc(-c2cn3c(n2)sc2cc(S(C)(=O)=O)ccc23)cc1 [IBT-41, 2,2,2-trifluoroacetate]    0.09
CC(C)(C)OC(=O)NCCOCCOCCOc1cccc(-c2cn3c(n2)sc2cc(S(C)(=O)=O)ccc23)c1    4.9
CC(C)(C)OC(=O)NCCOCCNC(=O)CCc1ccc2c(c1)sc1nc(-c3ccc(C(F)(F)F)cc3)cn12    4.47
COc1cc(-c2cn3c(n2)sc2cc(S(C)(=O)=O)ccc23)ccc1C(F)(F)F    0.004
C#CCCC1(CCNC(=O)CCc2cccc3c2sc2nc(-c4ccc(C(F)(F)F)cc4)cn23)N=N1 [IBT-73, 2,2,2-trifluoroacetate]    8.4
FC(F)(F)c1ccc(-c2cn3c(n2)sc2ccccc23)cc1    0.1
CNC(=O)CCCS(=O)(=O)c1ccc2c(c1)sc1nc(-c3ccc(C(F)(F)F)cc3)cn12    0.09
COc1ccc(-c2cn3c(n2)sc2cc(S(C)(=O)=O)ccc23)cc1    0.17
CS(=O)(=O)c1ccc2c(c1)sc1nc(-c3ccccc3)cn12 [IBT-21, reference compound]    0.61
CNC(=O)CCCNS(=O)(=O)c1ccc2c(c1)sc1nc(-c3ccc(C(F)(F)F)cc3)cn12    0.42

Batch request: IC50 for each of the following compounds.
1. CCN(CC)C(=O)CCc1ccc2c(c1)sc1nc(-c3ccc(C(F)(F)F)cc3)cn12
2. CS(=O)(=O)c1ccc2c(c1)sc1nc(-c3ccc(F)cc3)cn12
3. CC(C)(C)OC(=O)NCCCOc1ccc(-c2cn3c(n2)sc2cc(S(C)(=O)=O)ccc23)cc1

0.08
0.08
0.83

Batch request: IC50 for each of the following compounds.
1. COc1cc(-c2cn3c(n2)sc2cc(S(C)(=O)=O)ccc23)ccc1Cl
2. CCCc1ccc(-c2cn3c(n2)sc2cc(S(C)(=O)=O)ccc23)cc1
3. C#CCCC1(CCNC(=O)CCc2ccc3c(c2)sc2nc(-c4ccc(C(F)(F)F)cc4)cn23)N=N1

[0.01, 0.37, 4.16]

====

tested on: 293A cells; test: Cytoprotection under endoplasmic reticulum stress conditions (Tm-induced cell death); assay type: cell-based; conditions: compound concentration inhibiting Tm-induced cell death by 50%, Tm 0.2 µg/mL, reporter cells
Please use class 1 for IC50 under 0.4 µM and class 0 for everything else, ties included.

Worked cases, answers included:
COc1cccc(-c2cn3c(n2)sc2cc(S(C)(=O)=O)ccc23)c1 [IBT-33]    class 1
CC(C)(C)OC(=O)NCCOCCNC(=O)CCc1cccc2c1sc1nc(-c3ccc(C(F)(F)F)cc3)cn12 [IBT-74]    class 0
CS(=O)(=O)c1ccc2c(c1)sc1nc(-c3ccc(Cl)c(Cl)c3)cn12 [IBT-32]    class 1
CS(=O)(=O)c1ccc2c(c1)sc1nc(-c3ccc(Cl)cc3Cl)cn12 [IBT-44]    class 0
C[C@H](CCC(=O)NCCS(=O)(=O)O)[C@H]1CC[C@H]2[C@@H]3[C@@H](O)C[C@@H]4C[C@H](O)CC[C@]4(C)[C@H]3CC[C@]12C [TUDCA, tauroursodeoxycholic acid, reference compound]    class 0

Please state whether IC50 is below 0.4 µM for CCOc1ccc2c(c1)sc1nc(-c3ccc(Cl)cc3)cn12 [IBT-46]
class 0

Please state whether IC50 is below 0.4 µM for C#CCOc1cc(-c2cn3c(n2)sc2cc(S(C)(=O)=O)ccc23)ccc1Cl [IBT-56]
class 0

Please state whether IC50 is below 0.4 µM for FC(F)(F)c1ccc(-c2cn3c(n2)sc2c(Br)cccc23)cc1 [IBT-72]
class 0

Please state whether IC50 is below 0.4 µM for C#CCOCc1ccc2c(c1)sc1nc(-c3ccc(Cl)cc3)cn12 [IBT-60, 2,2,2-trifluoroacetate]
class 0

Please state whether IC50 is below 0.4 µM for C#CCCC1(CCOc2cc(-c3cn4c(n3)sc3cc(S(C)(=O)=O)ccc34)ccc2Cl)N=N1 [IBT-63, 2,2,2-trifluoroacetate]
class 1

Please state whether IC50 is below 0.4 µM for C#CCCC1(CCOc2cccc(-c3cn4c(n3)sc3cc(S(C)(=O)=O)ccc34)c2)N=N1 [IBT-70, 2,2,2-trifluoroacetate]
class 0

Please state whether IC50 is below 0.4 µM for CNC(=O)CCc1ccc2c(c1)sc1nc(-c3ccc(Cl)cc3)cn12 [IBT-35]
class 1

Please state whether IC50 is below 0.4 µM for C#CCNC(=O)CCc1ccc2c(c1)sc1nc(-c3ccc(C(F)(F)F)cc3)cn12 [IBT-57]
class 0

Please state whether IC50 is below 0.4 µM for COc1cccc2sc3nc(-c4ccc(Cl)cc4)cn3c12 [IBT-51]
class 0

Please state whether IC50 is below 0.4 µM for O=C(O)CCCc1ccccc1 [Compound 4-PBA, 4-phenylbutyric acid, reference compound]
class 0

Please state whether IC50 is below 0.4 µM for CCOc1ccc(-c2cn3c(n2)sc2cc(S(C)(=O)=O)ccc23)cc1 [IBT-64]
class 0

Please state whether IC50 is below 0.4 µM for CCOC(=O)c1ccc2c(c1)sc1nc(-c3ccc(Cl)cc3)cn12 [IBT-45]
class 1

Ref: patent EP4741401A1
